EXPERIMENTAL TARGET: Human HDAC4 (Homo sapiens, UniProt P56524)
Construct: amino acids 627-1085 with N-terminal GST tag; GST (N); host or cells: baculovirus expression system
Sequence (P56524 627-1084 limits assumed): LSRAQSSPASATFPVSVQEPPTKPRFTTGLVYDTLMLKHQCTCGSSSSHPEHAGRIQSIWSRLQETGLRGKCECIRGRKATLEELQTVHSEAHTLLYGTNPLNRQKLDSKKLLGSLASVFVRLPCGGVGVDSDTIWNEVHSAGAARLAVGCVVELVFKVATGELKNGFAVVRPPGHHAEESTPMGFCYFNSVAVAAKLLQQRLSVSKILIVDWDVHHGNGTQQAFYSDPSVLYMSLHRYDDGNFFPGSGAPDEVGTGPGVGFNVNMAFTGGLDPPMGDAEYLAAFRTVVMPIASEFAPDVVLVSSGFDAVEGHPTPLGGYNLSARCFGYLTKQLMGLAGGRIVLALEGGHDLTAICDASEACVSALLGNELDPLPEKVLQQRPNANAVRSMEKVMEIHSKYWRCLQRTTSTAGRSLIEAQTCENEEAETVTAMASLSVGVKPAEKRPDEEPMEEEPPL
RUN DESCRIPTION: HDAC4 biochemical assay, class IIa-specific substrate
PROTOCOL CONDITIONS: read-out: HDAC Isoform IC50 (nM) 4
VALUE TYPE: IC50

Reference set, count: 5
FC(F)(F)c1ccnc(N(Cc2ccc(-c3noc(C(F)(F)F)n3)s2)c2cnccn2)c1; > 10000 nM
O=C(c1ccc(N(Cc2ccc(-c3noc(C(F)(F)F)n3)s2)c2cnccn2)nn1)N1CCCC1; ≤ 500 nM
FC(F)(F)c1nc(-c2ccc(CN(c3cnccn3)c3ccc(N4CCCC4)nn3)s2)no1; ≤ 1000 nM
O=C(c1nccnc1N(Cc1ccc(-c2noc(C(F)(F)F)n2)s1)c1cnccn1)N1CCC1; ≤ 10000 nM
COC1CN(Cc2ccnc(N(Cc3ccc(-c4noc(C(F)(F)F)n4)s3)c3cnccn3)c2)C1; ≤ 10000 nM

Q: Test system Human HDAC4 (Homo sapiens, UniProt P56524); read-out IC50; what value for `O=C(c1cnnc(N(Cc2ccc(-c3noc(C(F)(F)F)n3)s2)c2cnccn2)c1)N1CCC(F)(F)CC1` ?
Result: ≤ 10000 nM

Q: Test system Human HDAC4 (Homo sapiens, UniProt P56524); read-out IC50; what value for `O=C(c1ccc(N(Cc2ccc(-c3noc(C(F)(F)F)n3)s2)c2cnccn2)nn1)N1CC[S+]([O-])CC1` ?
Result: ≤ 500 nM

Q: Test system Human HDAC4 (Homo sapiens, UniProt P56524); read-out IC50; what value for `O=C(c1ccc(N(Cc2ccc(-c3noc(C(F)(F)F)n3)s2)c2cnccn2)nn1)N1CCC2(COC2)C1` ?
Result: ≤ 500 nM

Q: Test system Human HDAC4 (Homo sapiens, UniProt P56524); read-out IC50; what value for `COc1ncc(N(Cc2ccc(-c3noc(C(F)(F)F)n3)s2)c2cnccn2)nc1OC` ?
Result: ≤ 10000 nM

Q: Test system Human HDAC4 (Homo sapiens, UniProt P56524); read-out IC50; what value for `O=C(c1ccc(N(Cc2ccc(-c3noc(C(F)(F)F)n3)s2)c2cnccn2)nn1)N1CCC1` ?
Result: ≤ 500 nM

###

EXPERIMENTAL TARGET: Human HDAC4 (Homo sapiens, UniProt P56524)
Construct: amino acids 627-1085 with N-terminal GST tag; GST (N); host or cells: baculovirus expression system
RUN DESCRIPTION: HDAC4 biochemical assay, class IIa-specific substrate
PROTOCOL CONDITIONS: read-out: HDAC Isoform IC50 (nM) 4
Description: Activity against all zinc-dependent HDACs 1 to 11 was assessed by using an acetylated AMC-labeled peptide substrate. The substrate RHKK(Ac)AMC was used for HDAC1, HDAC2, HDAC3, HDAC6 and HDAC10; the substrate used for HDAC8 was RHK(Ac)K(Ac)AMC. Activity against the class IIa HDACs (HDAC4, 5, 7, 9) and HDAC11 was determined using a class IIa-specific substrate, BOC-Lys(trifluoroacetyl)-AMC (“Trifluoroacetyl Lysine”; see Lahm et al, 2007, PNAS, 104, 17335-17340). […]
VALUE TYPE: IC50

Reference set, count: 3
COC1CN(C(=O)c2ccc(N(Cc3ccc(-c4noc(C(F)(F)F)n4)s3)c3cnccn3)nn2)C1 [Example DR]; ≤ 500 nM
Cc1cnc(N(Cc2ccc(-c3noc(C(F)(F)F)n3)s2)c2cc(C(F)(F)F)cnn2)cn1 [Example EO]; ≤ 10000 nM
Cc1ccc(N(Cc2ccc(-c3noc(C(F)(F)F)n3)s2)c2cnccn2)nn1 [Example DF]; ≤ 10000 nM

As a next step, examine the compound that follows.
Q: Can you share its IC50? I mean this compound: FC(F)(F)c1cnnc(N(Cc2ccc(-c3noc(C(F)(F)F)n3)s2)c2cnccn2)c1 [Example EF]
Result: ≤ 10000 nM

###

EXPERIMENTAL TARGET: Human HDAC1 (Homo sapiens, UniProt Q13547)
Construct: full length with C-terminal His-tag and C-terminal FLAG-tag; His (C); FLAG (C); host or cells: baculovirus expression system
Sequence (Q13547 whole entry): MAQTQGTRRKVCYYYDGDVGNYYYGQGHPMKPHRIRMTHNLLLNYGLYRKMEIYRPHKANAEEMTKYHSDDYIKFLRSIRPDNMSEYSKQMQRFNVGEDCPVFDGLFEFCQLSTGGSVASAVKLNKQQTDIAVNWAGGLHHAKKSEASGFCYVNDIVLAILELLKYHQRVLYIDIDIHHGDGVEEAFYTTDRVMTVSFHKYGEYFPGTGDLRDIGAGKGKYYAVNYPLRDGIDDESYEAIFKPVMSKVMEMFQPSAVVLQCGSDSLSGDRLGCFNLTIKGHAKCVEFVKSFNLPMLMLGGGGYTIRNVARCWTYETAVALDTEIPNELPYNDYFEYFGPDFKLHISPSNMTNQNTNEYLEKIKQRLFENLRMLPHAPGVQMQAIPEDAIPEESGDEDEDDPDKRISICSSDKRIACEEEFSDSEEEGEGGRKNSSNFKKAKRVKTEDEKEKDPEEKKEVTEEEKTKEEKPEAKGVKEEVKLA
RUN DESCRIPTION: HDAC1 biochemical assay, AMC-labeled peptide substrate
PROTOCOL CONDITIONS: read-out: HDAC Isoform IC50 (nM) 1
Each item that follows carries a reported IC50.

Reference set, count: 10
FC(F)(F)c1nc(-c2ccc(CN(c3cnccn3)c3ccc(-n4cccn4)nn3)s2)no1; ≤ 10000 nM
Cc1cncnc1N(Cc1ccc(-c2noc(C(F)(F)F)n2)s1)c1cnccn1; > 10000 nM
FC(F)(F)c1nc(-c2ccc(CN(c3cnccn3)c3cc(N4CCCC4)cnn3)s2)no1; > 10000 nM
COc1cncc(N(Cc2ccc(-c3noc(C(F)(F)F)n3)s2)c2cnccn2)n1; > 10000 nM
O=C(O)c1cnnc(N(Cc2ccc(-c3noc(C(F)(F)F)n3)s2)c2cnccn2)c1; > 10000 nM
FC(F)(F)c1nc(-c2ccc(CN(c3cnccn3)c3cnc(N4CCOCC4)cn3)s2)no1; ≤ 10000 nM
O=C(c1nccnc1N(Cc1ccc(-c2noc(C(F)(F)F)n2)s1)c1cnccn1)N1CCC1; > 10000 nM
COc1cnc(N(Cc2ccc(-c3noc(C(F)(F)F)n3)s2)c2cnccn2)cn1; > 10000 nM
O=C(c1cnnc(N(Cc2ccc(-c3noc(C(F)(F)F)n3)s2)c2cnccn2)c1)N1C[C@H]2C[C@@H]1CO2; > 10000 nM
FC(F)(F)c1nc(-c2ccc(CN(c3cnccn3)c3ncccc3N3CCOCC3)s2)no1; > 10000 nM

Q: Can you share its IC50? I mean this compound: `CN1CCN(c2ccc(N(Cc3ccc(-c4noc(C(F)(F)F)n4)s3)c3cnccn3)nn2)CC1`
Result: ≤ 10000 nM

Q: Can you share its IC50? I mean this compound: `FC(F)(F)c1cc(N(Cc2ccc(-c3noc(C(F)(F)F)n3)s2)c2cnccn2)ncn1`
Result: > 10000 nM

Q: Can you share its IC50? I mean this compound: `FC(F)(F)c1cnc(N(Cc2ccc(-c3noc(C(F)(F)F)n3)s2)c2cnccn2)cn1`
Result: > 10000 nM

Q: Can you share its IC50? I mean this compound: `FC(F)(F)c1nc(-c2ccc(CN(c3cnccn3)c3ccc4ccncc4n3)s2)no1`
Result: > 10000 nM

Q: Can you share its IC50? I mean this compound: `Cc1ccc(N(Cc2ccc(-c3noc(C(F)(F)F)n3)s2)c2cnccn2)nn1`
Result: > 10000 nM

Q: Can you share its IC50? I mean this compound: `FC(F)(F)c1cnnc(N(Cc2ccc(-c3noc(C(F)(F)F)n3)s2)c2ncccc2N2CCOCC2)c1`
Result: > 10000 nM

###

Each item that follows carries a reported IC50.
EXPERIMENTAL TARGET: Recombinant human HDAC6 (Homo sapiens, UniProt Q9UBN7)
Construct: full length, MW=159 kDa; GST (N); host or cells: Sf9 insect cells (baculovirus)
Sequence (Q9UBN7 whole entry): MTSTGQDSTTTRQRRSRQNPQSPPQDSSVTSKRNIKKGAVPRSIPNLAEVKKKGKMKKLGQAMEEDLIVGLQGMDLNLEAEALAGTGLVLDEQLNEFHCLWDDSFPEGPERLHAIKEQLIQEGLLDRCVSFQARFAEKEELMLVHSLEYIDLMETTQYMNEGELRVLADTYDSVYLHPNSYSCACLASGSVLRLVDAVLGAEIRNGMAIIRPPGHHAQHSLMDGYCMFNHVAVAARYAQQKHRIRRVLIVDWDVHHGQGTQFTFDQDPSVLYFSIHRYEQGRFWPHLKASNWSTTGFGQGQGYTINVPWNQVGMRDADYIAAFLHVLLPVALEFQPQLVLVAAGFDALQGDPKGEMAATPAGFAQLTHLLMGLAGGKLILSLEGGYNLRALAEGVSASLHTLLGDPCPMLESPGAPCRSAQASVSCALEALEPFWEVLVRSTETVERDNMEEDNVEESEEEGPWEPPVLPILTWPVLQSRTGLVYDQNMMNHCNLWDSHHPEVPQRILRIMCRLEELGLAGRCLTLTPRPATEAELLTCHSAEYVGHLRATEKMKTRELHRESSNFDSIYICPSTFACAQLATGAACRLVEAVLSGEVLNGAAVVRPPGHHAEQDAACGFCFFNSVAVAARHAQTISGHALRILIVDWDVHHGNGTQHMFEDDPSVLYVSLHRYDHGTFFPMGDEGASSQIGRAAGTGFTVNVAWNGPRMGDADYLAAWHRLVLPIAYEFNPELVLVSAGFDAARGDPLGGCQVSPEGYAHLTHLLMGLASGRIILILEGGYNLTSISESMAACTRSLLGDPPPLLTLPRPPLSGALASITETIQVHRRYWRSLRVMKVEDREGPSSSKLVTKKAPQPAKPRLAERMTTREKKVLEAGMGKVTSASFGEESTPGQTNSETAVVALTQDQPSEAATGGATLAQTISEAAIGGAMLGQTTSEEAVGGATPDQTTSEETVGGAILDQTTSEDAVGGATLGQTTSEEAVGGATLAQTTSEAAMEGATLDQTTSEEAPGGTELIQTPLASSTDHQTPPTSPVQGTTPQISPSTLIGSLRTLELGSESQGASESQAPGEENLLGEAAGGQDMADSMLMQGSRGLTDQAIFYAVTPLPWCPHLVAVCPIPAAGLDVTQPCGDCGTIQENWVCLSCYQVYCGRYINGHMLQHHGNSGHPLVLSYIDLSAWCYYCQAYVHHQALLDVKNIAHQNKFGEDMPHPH
RUN DESCRIPTION: HDAC6 biochemical assay, AMC-labeled peptide substrate
PROTOCOL CONDITIONS: HDAC6; read-out: HDAC Isoform IC50 (nM) 6

Reference set, count: 6
Nc1cnnc(N(Cc2ccc(-c3noc(C(F)(F)F)n3)s2)c2cnccn2)c1 [Example FL]; ≤ 500 nM
FC(F)(F)c1cc(N(Cc2ccc(-c3noc(C(F)(F)F)n3)s2)c2cnccn2)ncn1 [Example CJ]; ≤ 10000 nM
FC(F)(F)c1nc(-c2ccc(CN(c3cnccn3)c3ncccc3C3CC3)s2)no1 [Example AM]; ≤ 10000 nM
O=C(c1cnnc(N(Cc2ccc(-c3noc(C(F)(F)F)n3)s2)c2cnccn2)c1)N1CC2(COC2)C1 [Example FZ]; ≤ 500 nM
FC(F)(F)c1nc(-c2ccc(CN(c3cnc(C4CC4)nc3)c3cnccn3)s2)no1 [Example CU]; ≤ 10000 nM
FC(F)(F)c1nc(-c2ccc(CN(c3cnccn3)c3ccc(N4CCOCC4)nn3)s2)no1 [Example DJ]; ≤ 500 nM

Q: Test system Recombinant human HDAC6 (Homo sapiens, UniProt Q9UBN7); read-out IC50; what value for FC(F)(F)c1nc(-c2ccc(CN(c3ccncn3)c3cnccn3)s2)no1 [Example BZ] ?
Result: ≤ 500 nM

Q: Test system Recombinant human HDAC6 (Homo sapiens, UniProt Q9UBN7); read-out IC50; what value for O=C(c1ccc(N(Cc2ccc(-c3noc(C(F)(F)F)n3)s2)c2cnccn2)nn1)N1CCC2(COC2)C1 [Example FJ] ?
Result: ≤ 500 nM

Q: Test system Recombinant human HDAC6 (Homo sapiens, UniProt Q9UBN7); read-out IC50; what value for FC(F)(F)c1nc(-c2ccc(CN(c3cnccn3)c3cc(N4CCCC4)cnn3)s2)no1 [Example FQ] ?
Result: ≤ 1000 nM

Q: Test system Recombinant human HDAC6 (Homo sapiens, UniProt Q9UBN7); read-out IC50; what value for CS(=O)(=O)c1nccc(N(Cc2ccc(-c3noc(C(F)(F)F)n3)s2)c2cnccn2)n1 [Example CE] ?
Result: ≤ 500 nM

Q: Test system Recombinant human HDAC6 (Homo sapiens, UniProt Q9UBN7); read-out IC50; what value for O=C(c1cnnc(N(Cc2ccc(-c3noc(C(F)(F)F)n3)s2)c2cnccn2)c1)N1CCC12COC2 [Example GF] ?
Result: ≤ 500 nM
